# System: P388 leukemia ip, CD2F1 mice, survival T/C
# TEST_METHOD_NOTES: NCI In Vivo Anticancer Drug Screen. Data for tumor model P388 Leukemia (intraperitoneal) in CD2F1 (CDF1) mice
# MEASUREMENT_PARAMETERS: endpoint: median survival time; dose: 240.0 mg/kg/injection; schedule: Q01DX005 (ip); vehicle: Klucel (hydroxypropylcellulose) (HPC); higher = longer survival
Toxic doses and inconclusive results are not listed.
Exercise: for every item that follows, state its recorded T/C.

Known T/C results, listed for orientation:
molecule="[N-]=[N+]=NCC1OC(n2cnc3c(=O)[nH]c(N)nc32)C(O)C1O (stereo not given)" recorded_result="106 % of control"
molecule=CN1C(=O)N(C)N(Cc2ccccc2)C(=O)N1Cc1ccccc1 recorded_result="96 % of control"
molecule=O=C(O)/C=C/C(=O)NNc1nc2ccccc2s1 recorded_result="89 % of control"
molecule="CCOC(=O)C1CSC(c2c(CO)cnc(C)c2O)N1 (stereo not given)" recorded_result="99 % of control"
molecule=Cc1ccccc1-n1c(SCC(=O)NC(=O)Nc2cccc(Cl)c2)nc2c(Br)cc(Br)cc2c1=O recorded_result="87 % of control"
molecule=COC1(OC)OC(c2ccccc2)=C(c2ccccc2)C(C#N)(C#N)C1(OC)OC recorded_result="94 % of control"

Please state T/C for every molecule in the list that follows.
1. COc1ccc2c3c1OC1CC(N4CCCC4)=C(c4c([N+](=O)[O-])cc([N+](=O)[O-])cc4[N+](=O)[O-])C4(O)C(C2)N(C)CCC314 (stereo not given)
2. CC1(C)N=C(NN=C2CCCCC2)SP1(=O)NCC(=O)O (stereo not given)
3. O=C1OC(c2ccccc2)N(c2ccccc2)C(=O)C1Cc1ccccc1 (stereo not given)
4. C/C(C=O)=C\c1ccc(N(C)C)cc1

90 % of control
101 % of control
110 % of control
100 % of control

---

# Test system: P388 leukemia ip, CD2F1 mice, survival T/C
# TEST_METHOD_NOTES: NCI In Vivo Anticancer Drug Screen. Data for tumor model P388 Leukemia (intraperitoneal) in CD2F1 (CDF1) mice
# MEASUREMENT_PARAMETERS: endpoint: median survival time; dose: 100.0 mg/kg/injection; schedule: Q01DX005 (ip); vehicle: saline with Tween-80; higher = longer survival
# Procedure: The antitumor activity of compounds was measured in mice bearing transplantable tumors. Survival or tumor size were measured and the results are expressed as the measurement made in the treated group (T) divided by the measurement made in the vehicle treated control group (C). The tumor model used in this assay is P388 Leukemia (intraperitoneal) in CD2F1 (CDF1) mice
Toxic doses and inconclusive results are not listed.
Exercise: for every item that follows, state its recorded T/C.

Known T/C results, listed for orientation:
compound=ClCCN1c2ccc3ccccc3c2Sc2c1ccc1ccccc21 target_entity="P388 leukemia ip, CD2F1 mice, survival T/C" recorded_result="92 % of control"
compound="O=C(OCc1ccccc1)C(Cc1ccccc1)NC(=O)C(Cc1ccc(O)cc1)N(C(=O)OCc1ccccc1)C(=O)OCc1ccccc1 (stereo not given)" target_entity="P388 leukemia ip, CD2F1 mice, survival T/C" recorded_result="100 % of control"

Please state T/C for every compound in the list that follows.
1. COC(=O)c1cc(O)c2c(c1C(=O)OC)C[C@H]1[C@@H]3CC=C4C[C@@H](O)CC[C@]4(C)[C@H]3CC[C@]21C
2. COC(=O)c1cc(C2OC3OC(C)(C)OC3C2OC)nn1-c1ccc([N+](=O)[O-])cc1 (stereo not given)
3. C=CCOc1cc2c(cc1C(C)c1ccc(OC)c(OC)c1)OCO2 (stereo not given)
4. CC(C)NC(=O)OCc1c(COC(=O)NC(C)C)c2n(c1-c1ccc(Cl)c(Cl)c1)CCS2(=O)=O
5. CCOc1c(N=Nc2ccc(OC)cc2)c(-c2ccccc2)nn1C(N)=S
6. O=C(O)CSC(SCC(=O)O)c1ccc(F)cc1
7. Clc1cnc(Oc2ccccc2)c2ccccc12
8. Nc1ncc2[nH]c(=O)[nH]c2n1

["87 % of control", "100 % of control", "100 % of control", "88 % of control", "100 % of control", "96 % of control", "103 % of control", "100 % of control"]

---

# System: P388 leukemia ip, CD2F1 mice, survival T/C
# TEST_METHOD_NOTES: NCI In Vivo Anticancer Drug Screen. Data for tumor model P388 Leukemia (intraperitoneal) in CD2F1 (CDF1) mice
# MEASUREMENT_PARAMETERS: endpoint: median survival time; dose: 100.0 mg/kg/injection; schedule: Q01DX005 (ip); vehicle: saline with Tween-80; higher = longer survival
Inconclusive results and toxic doses are left out.
ASSAY_ENDPOINT: T/C

compound="CC(NCc1ccccc1)[Si](C)(C)C (centres undefined)" recorded_result="105 % of control"
compound=S=c1n(-c2ccc(Cl)cc2)c2nc3ccccc3nc(/c2=N\Nc2ccccc2)n1-c1ccc(Br)cc1 recorded_result="105 % of control"
compound=COc1cccc(-c2nc(SCC(N)=O)[nH]c(=O)c2C#N)c1 recorded_result="98 % of control"
compound="CN(C)CCCN1C(=O)C2CCC(C)(C1=O)C2(C)C (centres undefined)" recorded_result="101 % of control"
compound=CC[n+]1c([S-])nn(C)c1-c1cnccn1 recorded_result="108 % of control"

Please state T/C for every compound in the list that follows.
1. O=c1c2[nH]c3ccccc3sc=2c(=O)n1-c1c(F)c(F)c(F)c(F)c1F
2. S=C(NCCN1CCN2Cc3[nH]c4ccccc4c3CC2C1)Nc1ccccc1 (centres undefined)
3. COC(=O)C1=CN(C(C)=O)C=C(C(=O)OC)C1c1ccccc1

1. 103 % of control
2. 91 % of control
3. 93 % of control

Please state T/C for every compound in the list that follows.
1. CCCN(CCC)C(C)C(O)c1ccc2cc(Br)c3ccccc3c2c1 (centres undefined)
2. CCC1OCC(C(Cl)CCl)O1 (centres undefined)
3. COc1ccc(C2CCC[C@H](CCc3ccc(O)cc3)O2)cc1 (some centres undefined)
4. CC(N[Si](c1ccccc1)(c1ccccc1)C(C)(C)C)c1ccccc1 (centres undefined)
5. CCN(CC)C1CS(=O)(=O)OC(c2ccccc2)=C1C (centres undefined)
6. CCN(CC)CCN(Cc1ccccc1)C(=O)C1c2ccccc2Oc2ccccc21
7. CCCCCCCCCCCCn1c2nc(=O)[nH]c(=O)c-2nc2ccccc21

["99 % of control", "111 % of control", "114 % of control", "97 % of control", "102 % of control", "105 % of control", "87 % of control"]

Please state T/C for every compound in the list that follows.
1. Cc1ccccc1Nc1ccc([N+](=O)[O-])c2nonc12
2. Nc1nnc2nc(C(C(=O)/C=C\c3cccc(O)c3)c3nc4nnc(N)n4[nH]c3=O)c(=O)[nH]n12
3. CCOC(=O)c1nc[nH]c1C

1. 98 % of control
2. 94 % of control
3. 101 % of control

Please state T/C for every compound in the list that follows.
1. Cc1ccc(C)c(C[n+]2ccccc2C2(C)OCCO2)c1
2. Cc1cc(C=C2C(=O)NC(=O)NC2=O)cc(C)c1O
3. CSC(=S)NNC(C)c1nccc2ccccc12 (centres undefined)
4. Cc1nc2ccccc2nc1NNc1ccccc1
5. CC(=O)c1nn(-c2ccccc2)c(=O)cc1C
6. CCc1nc(N)nc(N)c1-c1ccc([N+](=O)[O-])cc1

1: 103 % of control; 2: 117 % of control; 3: 114 % of control; 4: 87 % of control; 5: 98 % of control; 6: 108 % of control

---

Exercise: for every item that follows, state its recorded T/C.
# Tested on: P388 leukemia ip, CD2F1 mice, survival T/C
# TEST_METHOD_NOTES: NCI In Vivo Anticancer Drug Screen. Data for tumor model P388 Leukemia (intraperitoneal) in CD2F1 (CDF1) mice
# MEASUREMENT_PARAMETERS: endpoint: median survival time; dose: 50.0 mg/kg/injection; schedule: Q01DX005 (ip); vehicle: saline with Tween-80; higher = longer survival
Toxic doses and inconclusive results are not listed.

compound=Cc1cc(C)nc(NS(=O)(=O)c2ccc(N=c3c4ccccc4n(C)c4ccccc34)cc2)n1 recorded_result="90 % of control"
compound=Cc1cn2ccccc2c1-c1ccccc1 recorded_result="111 % of control"
compound="O=CNC(Cc1cnc[nH]1)C(=O)O (configuration not stated)" recorded_result="100 % of control"
compound="CCC(=O)N1C(=O)C(C)C23c4ccccc4C(=O)N2CCCN13 (configuration not stated)" recorded_result="97 % of control"
compound=O=c1[nH]c(=O)c2cc3cn[nH]c3cc2[nH]1 recorded_result="92 % of control"
compound="NC(=O)C1CCCN(C2OC(COP(=O)(O)OP(=O)(O)OCC3OC(n4cnc5c(=O)[nH]c(N)nc54)C(O)C3O)C(O)C2O)C1 (configuration not stated)" recorded_result="100 % of control"
compound=Cc1ccccc1Nc1ccc([N+](=O)[O-])c2nonc12 recorded_result="103 % of control"
compound="COC(=O)Nc1ccc(C2OCCN2C(=O)Nc2ccc(Cl)cc2)cc1 (configuration not stated)" recorded_result="87 % of control"
compound=O=c1[nH]cnc2nc(S(=O)(=O)F)[nH]c12 recorded_result="103 % of control"
compound="CCCCCCCCCCN(CCCCCCCCCC)C(=O)C(C)OC(C)=O (configuration not stated)" recorded_result="98 % of control"

Please state T/C for every compound in the list that follows.
1. COc1ccc(C(C)(c2cc(C(C)(C)C)c(O)c(C(C)(C)C)c2)n2ccnc2)cc1 (configuration not stated)
2. CCN(SSN(CC)S(=O)(=O)c1ccc(C)cc1)S(=O)(=O)c1ccc(C)cc1
3. COCCN1C(N)=C(C#N)N=C2CCCC(N=C(C#N)C#N)=C21
4. S=c1n(-c2ccc(Cl)cc2)c2nc3ccccc3nc(/c2=N\Nc2ccccc2)n1-c1ccc(Br)cc1
5. CC1CC(C)(C)OC(C2CC=CCC2C)O1 (configuration not stated)

["98 % of control", "106 % of control", "100 % of control", "92 % of control", "97 % of control"]

Please state T/C for every compound in the list that follows.
1. Cc1ccccc1NC(=S)NC1C(=O)Nc2ccccc21 (configuration not stated)
2. CSc1nc2[nH]c(=O)[nH]c(=O)c2[nH]1
3. C=CCOc1cc2c(cc1C(C)c1ccccc1OC)OCO2 (configuration not stated)
4. O=C1c2ccccc2C(=O)N1c1ccc(Nc2nc(Nc3ccc(N4C(=O)c5ccccc5C4=O)cc3)nc(N(C3CCCCC3)C3CCCCC3)n2)cc1
5. CCC1(C#N)N=C(c2ccccc2)c2ccccc2N1C(=O)Oc1ccccc1 (configuration not stated)
6. O=C1c2ccccc2C(=O)c2c(OCCOCCO)cccc21

1. 101 % of control
2. 95 % of control
3. 99 % of control
4. 94 % of control
5. 89 % of control
6. 118 % of control

Annotate the compound Cc1ccccc1NC(=O)C(=O)C(C#N)c1ccc(Cl)cc1Cl (configuration not stated) with its measured T/C. 100 % of control
